system: U87MG cells; test: Radioactivity concentration of labeled compounds in tumor, U87MG subcutaneous transplantation; format: in vivo, mice (Balb/c AJcl-nu/nu); conditions: caudal vein; 111In 740 kBq, 64Cu and 90Y 500 kBq; 24 hours
Recorded Metric: Radioactivity concentration in tumor After 24 hours
Write the numeric value and append its unit.

Q. Fill in: Radioactivity concentration in tumor After 24 hours of Cc1cc(OCCCC(=O)NCCNC(=O)C(CS(=O)(=O)O)NC(=O)CN2CCN(CC(=O)[O-])CCN(CC(=O)[O-])CCN(CC(=O)[O-])CC2)cc(C)c1S(=O)(=O)NC(CNC(=O)CCCCc1ccc2c(n1)NCCC2)C(=O)O.[111In+3] (stereo not shown) [[^111In]-(compound A)] is ___
A. 9.62 % ID/g

Q. Cc1cc(OCCCC(=O)NCCNC(=O)C(CS(=O)(=O)O)NC(=O)CN2CCN(CC(=O)[O-])CCN(CC(=O)O)CCN(CC(=O)[O-])CC2)cc(C)c1S(=O)(=O)NC(CNC(=O)CCCCc1ccc2c(n1)NCCC2)C(=O)O.[64Cu+2] (stereo not shown) [[^64Cu]-(compound A)] ?
A. 8.48 % ID/g

Q. Cc1cc(OCCCC(=O)NCCNC(=O)C(CS(=O)(=O)O)NC(=O)CN2CCN(CC(=O)[O-])CCN(CC(=O)[O-])CCN(CC(=O)[O-])CC2)cc(C)c1S(=O)(=O)NC(CNC(=O)CCCCc1ccc2c(n1)NCCC2)C(=O)O.[90Y+3] (stereo not shown) [[^90Y]-(compound A)] ?
A. 15.29 % ID/g

Q. Cc1cc(OCCCC(=O)NCCNC(=O)[C@H](CS(=O)(=O)O)NC(=O)CC[C@H](C(=O)O)N2CCN(CC(=O)[O-])CCN(CC(=O)[O-])CC2)cc(C)c1S(=O)(=O)N[C@@H](CNC(=O)CCCCc1ccc2c(n1)NCCC2)C(=O)O.[64Cu+2] [[^64Cu]-(compound B)] ?
A. 8.53 % ID/g
